TGT: sGC α1/β1 heterodimer stably expressed in CHO-K1 cell line (CHO-K1/sGC) (Homo sapiens, UniProt Q02108+Q02153)
Construct: expressed in transfected cells
PROTOCOL_TEXT: Cell-based sGC Functional Assay (CASA Assay), cGMP generation
TEST_CONTEXT: CHO-K1/sGC cells, 1 hr at 37° C., cGMP by HTRF, 4P fit; presence or absence of 1 μM DETA-NO not given; read-out: IP (nM) (inflection point)
METRIC: EC50 (nM)
The answer is to be given in nM; state only the numeric part.

Here are 6 compounds together with their reported answers.
Query: Any idea what EC50 was measured for CCCCc1nc(-c2nc(N)c3c(n2)NC(=O)C3(c2ccccn2)C2CC2)cn2ncnc12 (stereo not drawn) [Example 116A] ?
Result: 19.7

Query: Which EC50 value is on record for CC1(c2ccc(F)cn2)C(=O)Nc2nc(-c3cn4ncnc4c(CCC(F)(F)C(F)(F)F)n3)nc(N)c21 (stereo not drawn) [Example 4B] ?
Result: 117

Query: Which EC50 value is on record for CC1(c2ccc(F)cn2)C(=O)Nc2nc(-c3cn4ncnc4c(CCCC(F)(F)F)n3)nc(N)c21 (stereo not drawn) [Example 22B] ?
Result: 38.3

Query: Looking for the measured EC50 of CC1(c2ccc(Cl)c(F)c2)C(=O)Nc2nc(-c3cn4ncnc4c(CCC(F)(F)F)n3)nc(O)c21 (stereo not drawn) [Example 153B] , can you help?
Result: 310

Query: EC50 for C[C@@]1(c2ccc(F)cc2)C(=O)Nc2nc(-c3cn4ncnc4c(CCC(F)(F)F)n3)nc(O)c21 [Example 151A] ?
Result: 1490

Query: // query EC50 value for entry CCCCc1nc(-c2nc(O)c3c(n2)NC(=O)C3(C)c2ccc(Cl)cn2)cn2ncnc12 (stereo not drawn) [Example 160A]
Result: 50.2

For the next question, use this compound.
Query: Fill in: EC50 of C[C@@]1(c2ccc(F)cc2)C(=O)Nc2nc(-c3cn4ncnc4c(CCC(F)(F)F)n3)nc(N)c21 [Example 74A] is ___
Result: 55.6

---

TGT: sGC α1/β1 heterodimer stably expressed in CHO-K1 cell line (CHO-K1/sGC) (Homo sapiens, UniProt Q02108+Q02153)
Construct: expressed in transfected cells
Sequence (Q02108 1-690): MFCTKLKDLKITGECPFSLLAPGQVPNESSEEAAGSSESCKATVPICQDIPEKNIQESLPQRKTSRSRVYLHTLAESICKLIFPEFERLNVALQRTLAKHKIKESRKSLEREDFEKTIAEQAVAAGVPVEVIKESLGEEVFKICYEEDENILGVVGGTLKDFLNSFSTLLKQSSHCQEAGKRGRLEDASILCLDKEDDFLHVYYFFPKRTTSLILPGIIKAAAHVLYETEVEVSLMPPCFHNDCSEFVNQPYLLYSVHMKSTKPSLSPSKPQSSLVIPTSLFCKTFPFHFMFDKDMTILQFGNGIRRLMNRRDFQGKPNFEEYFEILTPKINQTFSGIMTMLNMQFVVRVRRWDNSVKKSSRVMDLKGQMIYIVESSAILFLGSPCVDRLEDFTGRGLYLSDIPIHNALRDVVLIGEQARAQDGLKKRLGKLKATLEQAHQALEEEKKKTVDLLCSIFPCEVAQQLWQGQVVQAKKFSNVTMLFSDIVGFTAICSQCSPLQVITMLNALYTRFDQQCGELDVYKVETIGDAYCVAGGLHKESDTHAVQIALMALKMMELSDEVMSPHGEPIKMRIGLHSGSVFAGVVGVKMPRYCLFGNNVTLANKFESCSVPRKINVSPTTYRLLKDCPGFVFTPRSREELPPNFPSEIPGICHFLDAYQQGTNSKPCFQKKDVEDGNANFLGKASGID
Sequence (Q02153 1-619): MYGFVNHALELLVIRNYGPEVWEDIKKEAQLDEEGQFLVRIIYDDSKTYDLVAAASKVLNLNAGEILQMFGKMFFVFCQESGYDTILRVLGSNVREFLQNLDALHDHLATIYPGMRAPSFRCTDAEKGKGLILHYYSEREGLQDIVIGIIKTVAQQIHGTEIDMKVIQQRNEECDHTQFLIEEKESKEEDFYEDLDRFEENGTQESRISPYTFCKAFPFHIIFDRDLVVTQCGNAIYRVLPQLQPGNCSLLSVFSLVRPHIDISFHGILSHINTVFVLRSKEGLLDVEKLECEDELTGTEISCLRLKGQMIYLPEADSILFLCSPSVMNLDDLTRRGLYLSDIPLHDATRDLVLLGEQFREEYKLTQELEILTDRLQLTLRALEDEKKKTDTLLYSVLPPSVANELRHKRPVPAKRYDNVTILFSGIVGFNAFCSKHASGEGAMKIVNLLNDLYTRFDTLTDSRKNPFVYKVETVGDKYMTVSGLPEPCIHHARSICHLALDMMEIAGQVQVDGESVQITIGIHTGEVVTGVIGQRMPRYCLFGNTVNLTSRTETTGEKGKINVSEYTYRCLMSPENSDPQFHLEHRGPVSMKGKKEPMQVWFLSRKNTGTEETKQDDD
PROTOCOL_TEXT: Cell-based sGC Functional Assay (CASA Assay), cGMP generation
TEST_CONTEXT: CHO-K1/sGC cells, 1 hr at 37° C., cGMP by HTRF, 4P fit; presence or absence of 1 μM DETA-NO not given; read-out: IP (nM) (inflection point)
Binary call on EC50 with cut-off 80 nM: strictly below means T, and equality or higher means F.

Solved cases (6 shown):
Query: Take the molecule Cc1nc2c(CCC(F)(F)C(F)(F)F)nc(-c3nc(N)c4c(n3)NC(=O)C4(C)c3nnc(C4CC4)o3)cn2n1 (stereo not shown) [Example 103A] and say whether its EC50 is less than 80 nM.
Result: F

Query: Just wondering, is EC50 of CCCCc1nc(-c2nc(O)c3c(n2)NC(=O)C3(C)c2ccc(C)cn2)cn2ncnc12 (stereo not shown) [Example 161B] below 80 nM?
Result: F

Query: Would you kindly verify if EC50 of CC(C)Cc1nc(-c2nc(N)c3c(n2)NC(=O)[C@@]3(C)c2ccc(F)cc2)cn2ncnc12 [Example 73A] is strictly less than 80 nM?
Result: T

Query: Threshold test, EC50 < 80 nM: O=C1Nc2nc(-c3cn4ncnc4c(CCCC(F)(F)F)n3)nc(O)c2C1(c1ccc(F)c(F)c1)C1CC1 (stereo not shown) [Example 141A]
Result: F

Query: Here's an entry: N#Cc1ccc(C2(C3CC3)C(=O)Nc3nc(-c4cn5ncnc5c(CCC(F)(F)C(F)(F)F)n4)nc(N)c32)nc1 (stereo not shown) [Example 118A] . Is its EC50 below 80 nM?
Result: F

Query: For CC1(c2ccccn2)C(=O)Nc2nc(-c3cn4ncnc4c(CCC(F)(F)C(F)(F)F)n3)nc(N)c21 (stereo not shown) [Example 11B] , is the recorded EC50 below the cut-off of 80 nM?
Result: T

Please turn your attention to the following entry.
Query: Check if EC50 falls below 80 nM for Nc1nc(-c2cn3ncnc3c(CCCC(F)(F)F)n2)nc2c1C(c1ccc(Cl)c(F)c1)(C1CC1)C(=O)N2 (stereo not shown) [Example 33A] .
Result: T
